These measurements were taken from paper PMC9482650.

# target_of_assay: MAGI1_1, Q96QZ7
# Sequence (Q96QZ7 1-106): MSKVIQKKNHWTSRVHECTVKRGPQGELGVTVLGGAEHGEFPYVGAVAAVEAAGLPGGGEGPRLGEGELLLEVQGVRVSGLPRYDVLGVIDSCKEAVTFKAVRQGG
# procedure_text: holdup assay
# Design: key: below the threshold = too weak to quantify, mostly under pKd 3.1 to 4
# run_conditions: plain residues with an end cap or a label only (N-terminal biotin on a linker: ado-ado)
assay_endpoint: pKd

- KSRVAFFEEL [NF2, P35240;P35240-1]: below the threshold
- LKDDELKTKL [SLCO1A2, P46721]: below the threshold
- QRPYRRGSEI [KCNJ18, B7U540]: below the threshold
- NIAESLESLV [PTPRZ1, P23471]: below the threshold

Next binder, pKd to be filled in.
# input binder: TGLWKHETTV [ADGRA3, Q8IWK6] ; wanted: its pKd
below the threshold
